Catalogue of EC50 readings, one per entry.
# target_entity: T1, CD40 ligand (UniProt P29965 108-261, limits assumed)
# T1 construct: Used immobilised, soluble, or biotinylated on streptavidin beads; also called CD154; soluble CD40L
# T1 sequence (looked up): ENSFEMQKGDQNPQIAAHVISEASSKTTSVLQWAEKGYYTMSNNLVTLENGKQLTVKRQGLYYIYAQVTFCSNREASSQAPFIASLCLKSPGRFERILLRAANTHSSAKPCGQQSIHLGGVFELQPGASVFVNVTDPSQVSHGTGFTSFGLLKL
# assay_name: Alphascreen, unmodified peptide, inhibition of CD40L/CD40-Fc
Quick reminder: number only, in nM, skip the unit.

# count of solved cases: 4
binder | EC50 [nM]
HSFVLFGVNVPFNIIDFQMRVKC (Base peptide) [CD40L M1_42] | 200
CD40L M8_720 (Base peptide) peptide: RLPETRKAQAALATKYGIYGFCYYHYWFNGRRILESPVDAMLESGEPDFPFMLCWANENWT | 238
LLYVKVICFFCMLVQYNNFQTYK (Base peptide) [CD40L M2_159] | 120
CD40L M9_789 (Base peptide) peptide: LLAEQAGTLKSELEAMPLGEYEHAARYVSEVECNWKTFAGNYSECDHCHANHQDWITDIELEESELEVNDYHWILHYTHDEDVEDEMRIHDEHEAKFYYFWPNFT | 331

Note: attention shifts to another entry.
EC50 recorded for this binder, LPFVPYRSHVLKYGWFFPVQWSIFAVLPFQYLHRCR (Base peptide) [CD40L M1_18] , is 350
